Origin of the recorded values: paper PMC8237303

Molecular target: GABA A receptor (Picrotoxin site)
Assay: [3H]-EBOB binding assay
Details: read-out: Ki (mol/L), inhibition of the binding of [3H]-EBOB; GABAA (Picrotoxin site); Ki=IC50/(1+[L/Kd])
MEASURED PARAMETER: Ki (mol/L)

COMPOUND STRUCTURE	UNIT INFO	OBSERVED VALUE
CC(C)[C@@H]1CC[C@@H](C)C[C@H]1O	mol/L	0.000288

====

Molecular target: GABA A receptor (Picrotoxin site)
Experiment: [3H]-EBOB binding assay
Details: read-out: IC50 for inhibition of the [3H]-EBOB binding; rat cerebral cortex preparation; 7 concentrations, duplicate

COMPOUND STRUCTURE	SUBJECT OF TEST	IC50 / µM
CC(C)[C@@H]1CC[C@@H](C)C[C@H]1O	GABA A receptor (Picrotoxin site)	554
